- Target: Cathepsin L (Homo sapiens)
- Sequence (P07711 114-333, species assumed): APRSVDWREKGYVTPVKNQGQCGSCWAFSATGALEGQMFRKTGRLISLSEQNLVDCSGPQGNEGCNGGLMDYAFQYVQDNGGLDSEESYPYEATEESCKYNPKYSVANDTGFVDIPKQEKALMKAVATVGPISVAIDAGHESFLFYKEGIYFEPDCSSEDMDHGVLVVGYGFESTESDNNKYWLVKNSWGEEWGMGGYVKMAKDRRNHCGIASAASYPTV
pKi: −log10 of the molar value.
The label depends only on pKi: Criterion met if it is at least 9, Criterion not met if it is smaller.

Before answering, review these 5 worked examples.
Molecule	Classification
CCC(C)C(NC(=O)C(CC(C)C)NC(=O)Cc1ccccc1)C(=O)C(=O)NCC(=O)NC(Cc1ccc2ccccc2c1)C(N)=O (stereo not drawn) [PHELIX300]	Criterion met
CCC(C)C(NC(=O)C(CC(C)C)NC(=O)C(Cc1ccccc1)NC(=O)OCc1ccccc1)C(=O)C(=O)NC(CCCNC(=N)N)C(N)=O (stereo not drawn) [PHELIX294]	Criterion not met
CC(NC(=O)C(Cc1ccccc1)NC(=O)Cc1ccccc1)C(=O)C(=O)NC(Cc1ccc2ccccc2c1)C(=O)NC(C)(C)C(=O)O (stereo not drawn) [PHELIX158]	Criterion not met
CC(NC(=O)C(Cc1ccccc1)NC(=O)Cc1ccccc1)C(=O)C(=O)NC(CC1CCCCC1)C(=O)NC(Cc1ccc(-c2ccccc2)cc1)C(N)=O (stereo not drawn) [PHELIX259]	Criterion not met
CC(NC(=O)C(Cc1ccccc1)NC(=O)Cc1ccccc1)C(=O)C(=O)NC(Cc1ccccc1)C(=O)NC(Cc1ccc2ccccc2c1)C(N)=O (stereo not drawn) [PHELIX215]	Criterion met

Please tell me: is the molecule CCC(C)C(NC(=O)C(CC(C)C)NC(=O)Nc1ccccc1)C(=O)C(=O)NCC(=O)NC(Cc1ccc2ccccc2c1)C(N)=O (stereo not drawn) [PHELIX335] at or over 9 in terms of pKi? Criterion met

Repeat for the following molecule: CCCCC(=O)NC(Cc1ccccc1)C(=O)NC(C)C(=O)C(=O)NC(Cc1ccccc1)C(=O)NC(C)(C)C(N)=O (stereo not drawn) [PHELIX236] Criterion not met

Also CC(NC(=O)C(Cc1ccccc1)NC(=O)Cc1ccccc1)C(=O)C(=O)NC(Cc1ccccc1C(F)(F)F)C(=O)NC(Cc1ccc(-c2ccccc2)cc1)C(N)=O (stereo not drawn) [PHELIX265] ? Criterion not met

---

- Target: Cathepsin B (Homo sapiens)
- Test Name: Cathepsin B enzyme assay
- Measurement Context: Cat B (μM), Ki by Morrison equation; pH 6.0, substrate Z-Phe-Arg-Amc
We begin with a simple list: items and their reported Ki.
Could you give me the number in µM? Just the number is fine.

Return reported Ki; argument: CCC(C)C(NC(=O)C(=O)C(C)NC(=O)[C@H](Cc1cncs1)NC(=O)Cc1ccccc1)C(=O)NC(C)(C)C(=O)O (stereo partly shown) 0.72

Repeat with CCC(C)C(NC(=O)C(=O)C(Cc1ccccc1)NC(=O)C(Cc1ccccc1)NC(=O)Cc1ccccc1)C(=O)NC(C)(C)C(=O)O (stereo not shown) 0.0303

Moving on to CCC(C)C(NC(=O)C(=O)C(C)NC(=O)C(Cc1ccccc1)NC(=O)Cc1ccccc1)C(=O)NC(C)(C)C(=O)O (stereo not shown) 0.0318

Next compound: CC(NC(=O)C(Cc1ccccc1)NC(=O)Cc1ccccc1)C(=O)C(=O)NC(Cc1cc2ccccc2[nH]1)C(=O)NC(C)(C)C(N)=O (stereo not shown) 19.9

Input CCC(C)C(NC(=O)C(=O)C(C)NC(=O)C(Cc1ccc(F)cc1)NC(=O)Cc1ccccc1)C(=O)NC(C)(C)C(=O)O (stereo not shown) 0.0746

---

Reported pKi, Cat S (Homo sapiens, UniProt P25774).
Hey, just a heads up that pKi is the negative log base 10 of the concentration in molar.

> print(dat)
                                   compound  readout.name  number
1  CC(NC(=O)C(Cc1cccc2ccccc12)NC(=O)Cc1ccccc1)C(=O)C(=O)NC(Cc1ccccc1)C(=O)NC(C)(C)C(N)=O (stereo not drawn) [PHELIX205]           pKi    6.64

Read the next record carefully.
// map CC(NC(=O)C(Cc1cccc(F)c1)NC(=O)Cc1ccccc1)C(=O)C(=O)NC(Cc1ccccc1)C(=O)NC(C)(C)C(N)=O (stereo not drawn) [PHELIX212] to recorded pKi (system: Cat S (Homo sapiens, UniProt P25774)) 7.86
